molecular target: DLG2_2, Q15700; assay: holdup assay; parameters: key: below the threshold = too weak to quantify, mostly under pKd 3.1 to 4; conditions: plain residues with an end cap or a label only (N-terminal biotin on a linker: ttds)
Sequence (Q15700 189-283): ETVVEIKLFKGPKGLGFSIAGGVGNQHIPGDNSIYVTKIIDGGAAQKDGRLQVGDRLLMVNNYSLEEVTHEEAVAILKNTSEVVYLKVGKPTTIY
Record form. Attribute: pKd. Fill in for each entry.
Answers are plain numbers.

QUERY: For the binder SGSRPSATVV [HPV73-E6, Q82005] , report pKd.
RESULT: 4.03

QUERY: For the binder EMDRRPATVV [PLCB4, Q15147] , report pKd.
RESULT: 4.23

QUERY: For the binder EVVHTPETSV [SLC16A3, O15427] , report pKd.
RESULT: 3.98

QUERY: For the binder PVRVCEETSL [OTULIN, Q96BN8] , report pKd.
RESULT: 3.87

Now look at this one.
QUERY: For the binder QRQARSETLV [HPV59-E6, Q81964] , report pKd.
RESULT: 4.97

All figures here come from paper PMC9482650.
